Reference source: patent US11944626B2

# Tested on: OVSAHO
# EXPERIMENTAL DETAILS: OVSAHO Cell Viability
# Type: cell-based
# STUDY CONDITIONS: 30 μM, total cells
Kind request: treat 20 % ctrl as inclusive, so OVSAHO Cell Viability (30 μM) Total Cell % ctrl at 20 % ctrl or higher is class 1, anything lower is class 0.

Input line: Identify whether the reported OVSAHO Cell Viability (30 μM) Total Cell % ctrl of the following compound is 20 % ctrl or greater: `Cn1ncc2c(=O)n(-c3ccccc3)c(SCc3cccc(C(=O)C(F)(F)F)c3)nc21`
Output line: class 1

Input line: Please check the record `C[C@H](Sc1nc2c(cnn2C)c(=O)n1-c1ccccc1)c1ccccc1` and state if its OVSAHO Cell Viability (30 μM) Total Cell % ctrl is at or above 20 % ctrl.
Output line: class 1

Input line: In plain terms: is recorded OVSAHO Cell Viability (30 μM) Total Cell % ctrl at least 20 % ctrl for `CN(Cc1nc2c(cnn2C)c(=O)n1-c1ccccc1)c1cccc(F)c1` ?
Output line: class 1

Input line: Given the entry CC(Sc1nc2c(cnn2C)c(=O)n1-c1ccccc1)c1ccccc1 (racemic) , answer whether its OVSAHO Cell Viability (30 μM) Total Cell % ctrl meets or surpasses 20 % ctrl.
Output line: class 0

Input line: Quick check: does `CC1(Cn2cc3c(=O)n(-c4ccccc4)c(SCc4cccc(F)c4)nc3n2)COC1` have OVSAHO Cell Viability (30 μM) Total Cell % ctrl greater than or equal to 20 % ctrl?
Output line: class 0

Input line: Say whether `C[C@@H](Sc1nc2c(cnn2C)c(=O)n1-c1ccccc1)c1ccccc1` shows OVSAHO Cell Viability (30 μM) Total Cell % ctrl of 20 % ctrl or more.
Output line: class 1

Input line: Would you say CC(Oc1nc2c(cnn2C)c(=O)n1-c1ccccc1)c1ccccc1 (centres unmarked) shows OVSAHO Cell Viability (30 μM) Total Cell % ctrl at minimum 20 % ctrl?
Output line: class 1

Input line: hey, is OVSAHO Cell Viability (30 μM) Total Cell % ctrl for this one >= 20 % ctrl? CCC(Sc1nc2c(cnn2C)c(=O)n1-c1ccccc1)c1ccccc1 (centres unmarked)
Output line: class 0

Input line: Record `O=c1c2cn(CC3CNC3)nc2nc(SCc2cccc(F)c2)n1-c1ccccc1` ; criterion: OVSAHO Cell Viability (30 μM) Total Cell % ctrl no lower than 20 % ctrl. Met?
Output line: class 0

Input line: Assess whether reported OVSAHO Cell Viability (30 μM) Total Cell % ctrl for `O=c1c2cn(CC3COC3)nc2nc(OCc2cccc(F)c2)n1-c1ccccc1` sits at 20 % ctrl or higher.
Output line: class 0

Input line: Quick check: does `Cn1ncc2c(=O)n(-c3ccccc3)c(OCc3cccc(F)c3)nc21` have OVSAHO Cell Viability (30 μM) Total Cell % ctrl greater than or equal to 20 % ctrl?
Output line: class 1
